# Tested On: Neuronal acetylcholine receptor; alpha4/beta2 (Rattus norvegicus, UniProt P09483+P12390)
# Sequence (P09483 whole entry): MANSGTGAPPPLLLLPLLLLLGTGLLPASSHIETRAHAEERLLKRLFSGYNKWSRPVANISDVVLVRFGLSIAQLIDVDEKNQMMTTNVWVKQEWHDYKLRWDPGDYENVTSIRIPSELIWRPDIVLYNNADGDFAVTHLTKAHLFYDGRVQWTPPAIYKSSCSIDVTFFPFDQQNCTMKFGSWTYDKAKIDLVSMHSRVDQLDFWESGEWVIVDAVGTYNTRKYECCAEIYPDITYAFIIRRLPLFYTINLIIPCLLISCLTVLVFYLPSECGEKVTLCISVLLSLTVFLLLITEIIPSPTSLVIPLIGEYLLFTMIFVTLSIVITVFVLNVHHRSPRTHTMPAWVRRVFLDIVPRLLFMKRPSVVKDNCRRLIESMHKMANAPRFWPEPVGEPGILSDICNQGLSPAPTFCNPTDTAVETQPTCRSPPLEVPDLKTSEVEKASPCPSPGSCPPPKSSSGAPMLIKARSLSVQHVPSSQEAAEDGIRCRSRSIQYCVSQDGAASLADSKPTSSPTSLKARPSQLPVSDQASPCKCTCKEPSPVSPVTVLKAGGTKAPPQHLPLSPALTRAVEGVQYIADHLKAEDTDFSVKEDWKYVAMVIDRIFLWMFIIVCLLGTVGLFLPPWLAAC
# Sequence (P12390 whole entry): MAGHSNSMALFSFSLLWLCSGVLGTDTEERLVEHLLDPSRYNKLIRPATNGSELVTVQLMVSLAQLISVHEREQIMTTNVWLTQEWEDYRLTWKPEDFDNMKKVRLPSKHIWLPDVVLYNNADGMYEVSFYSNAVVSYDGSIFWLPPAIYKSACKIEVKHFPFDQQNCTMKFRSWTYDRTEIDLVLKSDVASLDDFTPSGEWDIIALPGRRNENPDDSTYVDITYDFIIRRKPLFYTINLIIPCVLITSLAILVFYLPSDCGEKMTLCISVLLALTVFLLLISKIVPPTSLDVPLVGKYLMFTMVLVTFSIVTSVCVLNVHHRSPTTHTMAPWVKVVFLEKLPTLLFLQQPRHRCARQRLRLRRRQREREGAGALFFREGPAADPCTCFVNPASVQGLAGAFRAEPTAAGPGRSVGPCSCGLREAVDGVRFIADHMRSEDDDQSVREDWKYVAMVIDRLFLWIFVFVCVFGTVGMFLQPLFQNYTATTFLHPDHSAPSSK
# Protocol: Displacement of [3H]epibatidine from rat recombinant alpha-4-beta-2 nAChR in HEK293 cell line
# Format: cell-based
# Condition Set: read-out: Ki
pKi: −log10 of the molar value.
Readout Type: pKi

- Molecule: "O=[N+]([O-])c1ccc(C[N+]23CC[C@@H]4[C@@H]5[C@@H]6[C@@H](OCC=C(C2)[C@@H]6C[C@@H]43)N2c3ccccc3[C@@]34CC[N+]6(Cc7ccc([N+](=O)[O-])cc7)CC7=CCO[C@H]([C@@H]([C@H]23)[C@H]7C[C@@H]46)N5c2ccccc2)cc1.[Br-].[Br-] (some centres not stated)"
  Tested On: "Neuronal acetylcholine receptor; alpha4/beta2 (Rattus norvegicus, UniProt P09483+P12390)"
  pKi: "< 4.00"

Would you kindly look at the next entry?
Task item: // returns reported pKi for input OC/C=C1/CN2CC[C@H]3[C@@H]2C[C@@H]1/C1=C/N2c4ccccc4[C@@]45CCN6CC7=CCO[C@H]([C@@H]([C@H]24)[C@H]7C[C@H]65)N(c2ccccc2)[C@@H]13
Reply: < 4.00
